The entries below are paired with their reported protein stability index.
B1: RTN1 (parent)
chain: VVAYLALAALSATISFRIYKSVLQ

variants of: B1; test: protein stability index of a GFP-peptide fusion (GPS, HEK-293T) (PSI 1-6); higher = more stable; conditions: c terminus: a fixed tail appended;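 further: lentivirally expressed fusions sorted by FACS into six bins by GFP to DsRed ratio, PSI derived from sequencing read proportions per bin multiplied by bin number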

[
  {
    "mutant": "Y19V",
    "protein stability index": 2.12
  },
  {
    "mutant": "Y4L",
    "protein stability index": 2.37
  },
  {
    "mutant": "A8P",
    "protein stability index": 3.27
  },
  {
    "mutant": "I18N",
    "protein stability index": 3.51
  },
  {
    "mutant": "L10E",
    "protein stability index": 2.17
  },
  {
    "mutant": "V1S",
    "protein stability index": 2.55
  },
  {
    "mutant": "K20T",
    "protein stability index": 3.84
  },
  {
    "mutant": "L23R",
    "protein stability index": 2.55
  }
]
